Where do these numbers come from? They come from patent US8119635B2.

Recorded measurements of pKi, one per entry
target: neuronal nicotinic acetylcholine receptors (Rattus norvegicus, UniProt P09483+P12390); construct: crude synaptic membrane preparations from whole rat brain; from tissue; host or cells: whole rat brain, crude synaptic membranes; assay: Binding of [3H]-cytisine to neuronal nicotinic acetylcholine receptors, crude synaptic membranes from whole rat brain
Sequence (P09483 31-630): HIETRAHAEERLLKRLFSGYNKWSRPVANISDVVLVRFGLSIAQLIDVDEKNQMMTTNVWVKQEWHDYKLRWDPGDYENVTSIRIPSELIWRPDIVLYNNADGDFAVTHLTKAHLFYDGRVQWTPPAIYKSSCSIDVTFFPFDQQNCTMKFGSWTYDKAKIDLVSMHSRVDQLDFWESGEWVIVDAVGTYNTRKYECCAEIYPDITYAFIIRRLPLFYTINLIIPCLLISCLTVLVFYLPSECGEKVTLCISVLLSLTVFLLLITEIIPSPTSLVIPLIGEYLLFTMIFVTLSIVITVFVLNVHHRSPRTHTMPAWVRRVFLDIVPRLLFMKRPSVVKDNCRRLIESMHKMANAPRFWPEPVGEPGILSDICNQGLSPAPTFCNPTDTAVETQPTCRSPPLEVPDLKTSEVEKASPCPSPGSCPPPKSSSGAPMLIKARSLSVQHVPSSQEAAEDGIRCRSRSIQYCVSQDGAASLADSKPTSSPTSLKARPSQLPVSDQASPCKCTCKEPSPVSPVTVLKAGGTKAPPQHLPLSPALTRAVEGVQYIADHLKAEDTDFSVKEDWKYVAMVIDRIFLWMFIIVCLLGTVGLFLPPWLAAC
Sequence (P12390 25-500): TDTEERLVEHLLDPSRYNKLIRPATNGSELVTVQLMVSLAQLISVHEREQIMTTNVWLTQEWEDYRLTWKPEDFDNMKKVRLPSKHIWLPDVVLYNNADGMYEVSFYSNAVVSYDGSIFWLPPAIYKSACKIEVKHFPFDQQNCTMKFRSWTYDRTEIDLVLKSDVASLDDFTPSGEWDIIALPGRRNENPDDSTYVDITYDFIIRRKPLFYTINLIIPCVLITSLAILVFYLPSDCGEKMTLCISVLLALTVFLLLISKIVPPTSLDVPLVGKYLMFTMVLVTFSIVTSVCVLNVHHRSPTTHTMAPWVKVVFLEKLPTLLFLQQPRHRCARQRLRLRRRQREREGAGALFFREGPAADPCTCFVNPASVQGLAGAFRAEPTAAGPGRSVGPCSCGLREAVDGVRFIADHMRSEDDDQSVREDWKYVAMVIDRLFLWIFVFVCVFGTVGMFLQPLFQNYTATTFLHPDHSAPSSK
pKi: −log10 of the molar value. Where a name gives a salt, the structure may show the parent alone.

# COMPOUND, TARGET OF ASSAY, pKi
records = [
    ("Clc1ccc(N2CC[C@H]3CNC[C@H]32)cn1 [Example 77, fumarate]", "neuronal nicotinic acetylcholine receptors (Rattus norvegicus, UniProt P09483+P12390)", 7.72),
    ("OCc1cc(N2C[C@H]3CCN[C@H]3C2)cnc1Br [Example 64, fumarate]", "neuronal nicotinic acetylcholine receptors (Rattus norvegicus, UniProt P09483+P12390)", 8.96),
    ("COc1cncc(N2C[C@@H]3CCN[C@@H]3C2)c1 [Example 32, 4-methylbenzenesulfonate]", "neuronal nicotinic acetylcholine receptors (Rattus norvegicus, UniProt P09483+P12390)", 8.28),
    ("Cc1cncc(N2C[C@H]3CCN[C@H]3C2)c1 [Example 58, trihydrochloride]", "neuronal nicotinic acetylcholine receptors (Rattus norvegicus, UniProt P09483+P12390)", 9.28),
    ("COc1cncc(N2C[C@H]3CNC[C@H]3C2)c1 [Example 7, dihydrochloride]", "neuronal nicotinic acetylcholine receptors (Rattus norvegicus, UniProt P09483+P12390)", 10.10),
]

====

# Ki per entry
target: neuronal nicotinic acetylcholine receptors (Rattus norvegicus, UniProt P09483+P12390); construct: crude synaptic membrane preparations from whole rat brain; from tissue; host or cells: whole rat brain, crude synaptic membranes; test: Binding of [3H]-cytisine to neuronal nicotinic acetylcholine receptors, crude synaptic membranes from whole rat brain; details: [3H]-CYT 1.25 nM, whole rat brain membranes, 60 minutes at 4° C.; IC50 converted to Ki by Cheng and Prusoff correction; read-out: Average Ki
Counter-ions that a name gives are not always drawn.
MEASURED QUANTITY: Ki (nM)

# COMPOUND, MEASURED QUANTITY, OBS VALUE
measured = [
    ("c1cncc(N2C[C@@H]3CCNC[C@@H]32)c1 [Example 92, 4-methylbenzenesulfonate]", "Ki", 0.12),
    ("Clc1cc(N2C[C@H]3CCNC[C@H]32)cnc1Cl [Example 93, 4-methylbenzenesulfonate]", "Ki", 0.3),
    ("c1cncc(N2C[C@H]3NCC[C@H]32)c1 [Example 20, bis(4-methylbenzenesulfonate)]", "Ki", 122),
    ("c1cncc(N2CC[C@H]3NC[C@H]32)c1 [Example 18, bis(4-methylbenzenesulfonate)]", "Ki", 154),
    ("COc1cncc(N2C[C@H]3CCNC[C@H]32)c1 [Example 88, fumarate]", "Ki", 0.56),
    ("c1cncc(N2C[C@@H]3CCN[C@@H]3C2)c1 [Example 30, 4-methylbenzenesulfonate]", "Ki", 2.9),
    ("Clc1ccc(N2C[C@H]3CCNC[C@H]32)cn1 [Example 47, difumarate]", "Ki", 0.8),
    ("c1cncc(N2C[C@H]3CCNC[C@H]32)c1 [Example 91, 4-methylbenzenesulfonate]", "Ki", 1.1),
]

====

tested on: Male Sprague-Dawley rats; experiment: Formalin test (analgesia); assay type: in vivo; conditions: Rattus norvegicus, ip, intraperitoneally 5 minutes before injection of 50 μL 5% formalin into rear paw, nocifensive behaviors, read-out: (MED) minimally effective dose, formalin test
Structures can show the parent of a compound that is named as a salt.
MEASURED QUANTITY: minimal effective dose (µmol/kg)

# COMPOUND, MEASUREMENT UNITS, RELATIONAL OPERATOR, OBS VALUE
measured = [
    ("N#Cc1cncc(N2C[C@H]3CNC[C@H]32)c1 [Example 74, bis(4-methylbenzenesulfonate)]", "µmol/kg", "=", 1.9),
    ("C#Cc1cncc(N2C[C@@H]3CNC[C@@H]32)c1 [Example 68, fumarate]", "µmol/kg", ">", 19),
    ("COc1cc(N2C[C@H]3CNC[C@H]3C2)cnc1Cl [Example 10, dihydrochloride]", "µmol/kg", "=", 1.9),
    ("Cc1cc(N2C[C@H]3CCN[C@H]3C2)cnc1Br [Example 60, dihydrochloride]", "µmol/kg", "=", 0.62),
    ("N#Cc1cc(N2C[C@H]3CNC[C@H]32)cnc1Br [Example 76, fumarate]", "µmol/kg", "=", 1.9),
    ("c1cncc(N2C[C@H]3CNC[C@H]32)c1 [Example 52, fumarate]", "µmol/kg", "=", 19),
    ("COc1cncc(N2C[C@H]3CNC[C@H]3C2)c1 [Example 7, dihydrochloride]", "µmol/kg", "=", 6.2),
    ("N#Cc1cncc(N2C[C@@H]3CCNC[C@@H]32)c1 [Example 50, fumarate]", "µmol/kg", "=", 6.2),
    ("c1cncc(N2C[C@@H]3CN[C@@H]3C2)c1 (relative stereo) [Example 38, bis(4-methylbenzenesulfonate)]", "µmol/kg", ">", 6.2),
    ("COc1cc(N2C[C@H]3CCN[C@H]3C2)cnc1Br", "µmol/kg", "=", 6.2),
    ("Cc1cc(N2C[C@H]3CNC[C@H]32)cnc1Cl [Example 87, 4-methylbenzenesulfonate]", "µmol/kg", "=", 6.2),
    ("Clc1ccc(N2C[C@H]3CCN[C@H]3C2)cn1 [Example 14, dihydrochloride]", "µmol/kg", "=", 0.62),
    ("N#Cc1cncc(N2C[C@H]3CCN[C@H]3C2)c1", "µmol/kg", "=", 6.2),
    ("COCc1cc(N2C[C@H]3CCN[C@H]3C2)cnc1Br [Example 67, fumarate]", "µmol/kg", "=", 19),
    ("N#Cc1cncc(N2CC[C@H]3CN[C@H]3C2)c1 (relative stereo) [Example 62, fumarate]", "µmol/kg", "=", 0.19),
    ("C=Cc1cc(N2C[C@@H]3CNC[C@@H]32)cnc1Br [Example 72, fumarate]", "µmol/kg", ">", 19),
    ("COc1cncc(N2C[C@H]3CCN[C@H]3C2)c1 [Example 29, dihydrochloride]", "µmol/kg", "=", 6.2),
    ("N#Cc1cncc(N2C[C@@H]3CNC[C@@H]32)c1 [Example 70, fumarate]", "µmol/kg", ">", 19),
    ("CCc1cncc(N2C[C@H]3CCN[C@H]3C2)c1", "µmol/kg", ">", 19),
    ("N#Cc1cc(N2C[C@H]3CCN[C@H]3C2)cnc1Br [Example 51, fumarate]", "µmol/kg", "=", 0.62),
    ("Brc1cncc(N2C[C@H]3CCN[C@H]3C2)c1 [Example 36, dihydrochloride]", "µmol/kg", "=", 6.2),
    ("c1cncc(N2C[C@@H]3CCNC[C@@H]32)c1 (relative stereo) [Example 44, bis(4-methylbenzenesulfonate)]", "µmol/kg", "=", 6.2),
    ("Clc1cc(N2C[C@H]3CNC[C@H]32)cnc1Cl [Example 85, fumarate]", "µmol/kg", ">", 19),
]

====

biological target: neuronal nicotinic acetylcholine receptors (Rattus norvegicus, UniProt P09483+P12390); construct: crude synaptic membrane preparations from whole rat brain; from tissue; host or cells: whole rat brain, crude synaptic membranes; assay: Binding of [3H]-cytisine to neuronal nicotinic acetylcholine receptors, crude synaptic membranes from whole rat brain
pKi: −log10 of the molar value. Where a name gives a salt, the structure may show the parent alone.
MEASURED QUANTITY: pKi

# COMPOUND, OBS VALUE
measured = [
    ("N#Cc1cncc(N2C[C@H]3CCNC[C@H]32)c1 [Example 61, fumarate]", 8.60),
    ("N#Cc1cc(N2C[C@H]3CNC[C@H]32)cnc1Br [Example 76, fumarate]", 9.55),
    ("N#Cc1cncc(N2CC[C@H]3CNC[C@H]32)c1 [Example 83, fumarate]", 7.01),
]

====

system: Male Sprague-Dawley rats; assay: Formalin test (analgesia); assay type: in vivo; details: Rattus norvegicus, ip, intraperitoneally 5 minutes before injection of 50 μL 5% formalin into rear paw, nocifensive behaviors, read-out: (MED) minimally effective dose, formalin test
Structures can show the parent of a compound that is named as a salt.

# MOLECULE, minimal effective dose
data = [
    ("C=Cc1cc(N2C[C@H]3CCN[C@H]3C2)cnc1Br [Example 65, dihydrochloride]", "> 19 µmol/kg"),
    ("COc1cncc(N2C[C@H]3CNC[C@H]32)c1 [Example 86, 4-methylbenzenesulfonate]", "> 19 µmol/kg"),
    ("Clc1ccc(N2C[C@@H]3CCN[C@@H]3C2)cn1 [Example 15, dihydrochloride]", "> 6.2 µmol/kg"),
    ("Brc1cncc(N2C[C@H]3CNC[C@H]32)c1 [Example 53, fumarate]", "> 19 µmol/kg"),
    ("c1cncc(N2C[C@@H]3CNC[C@@H]32)c1 [Example 55, fumarate]", "> 19 µmol/kg"),
    ("OCc1cc(N2C[C@H]3CCN[C@H]3C2)cnc1Br [Example 64, fumarate]", "> 19 µmol/kg"),
    ("Clc1ccc(N2C[C@@H]3CN[C@@H]3C2)cn1 (relative stereo) [Example 41, fumarate]", "> 1.9 µmol/kg"),
    ("C=Cc1cncc(N2C[C@@H]3CNC[C@@H]32)c1 [Example 69, fumarate]", "> 19 µmol/kg"),
]
